tested on: RNA synthesis in HL-60 cells; assay: Inhibition of [5-3H]Cyd incorporation into RNA of HL-60 cells; type: cell-based, human; conditions: Homo sapiens, HL-60, 0.5 h, at 0.03 mg/mL; read-out: % Inhibition of Precursor Incorporation, RNA
PROPERTY NAME: inhibition at 30 µg/mL (%)
Unit % implied. Number only.

>  <COMPOUND>
COc1cc(OC(C)=O)cc2c1c(=O)c1ccccc1n2C

>  <TARGET OF ASSAY>
RNA synthesis in HL-60 cells

>  <UNIT>
%

>  <inhibition at 30 µg/mL>
61.6

$$$$
>  <COMPOUND>
COc1ccc2c(=O)c3c(O)cc(OC(C)=O)cc3n(C)c2c1OC

>  <TARGET OF ASSAY>
RNA synthesis in HL-60 cells

>  <UNIT>
%

>  <inhibition at 30 µg/mL>
77

$$$$
>  <COMPOUND>
C=C(C)C1CCC2(C)CC1c1c(cc3c(c1O)c(=O)c1cccc(O)c1n3C)O2 (stereo not shown)

>  <TARGET OF ASSAY>
RNA synthesis in HL-60 cells

>  <UNIT>
%

>  <inhibition at 30 µg/mL>
55.7

$$$$

// below: inhibition at 30 µg/mL requested for another compound
# compound `Cn1c2ccccc2c(=O)c2c(O)cc3c(c21)C=CC(C)(C)O3` ; its inhibition at 30 µg/mL = 94
